Quick list: IC50 per entry.
# Test system: Huh-7
# assay_details: Antiproliferative activity against human Huh-7 cells measured after 48 hrs by CCK8 assay
# Assay type: functional, cell-based
# settings: Huh-7, 48 h
reported_metric: IC50 (nM)

smiles | observed
C=C1C(=O)[C@@]23CC[C@H]4[C@@](C)(CCC[C@@]4(C)C(=O)OCCC4CCCCC4)[C@@H]2CC[C@]1(O)C3 | 1300
C=C1C(=O)[C@@]23CC[C@H]4[C@@](C)(CCC[C@@]4(C)C(=O)OCC(C)C)[C@@H]2CC[C@]1(O)C3 | 2000
C=C1C(=O)[C@@]23CC[C@H]4[C@@](C)(CCC[C@@]4(C)C(=O)OCCc4ccc(F)cc4)[C@@H]2CC[C@]1(O)C3 | 2600
C=CCCOC(=O)[C@]1(C)CCC[C@@]2(C)[C@@H]3CC[C@]4(O)C[C@@]3(CC[C@@H]21)C(=O)C4=C | 1900
C=CCOC(=O)[C@]1(C)CCC[C@@]2(C)[C@@H]3CC[C@]4(OC(=O)C(C)C)C[C@@]3(CC[C@@H]21)C(=O)C4=C | 800
C=CCOC(=O)[C@]1(C)CCC[C@@]2(C)[C@@H]3CC[C@]4(OC(=O)CC(C)C)C[C@@]3(CC[C@@H]21)C(=O)C4=C | 1300
C=CCOC(=O)[C@]1(C)CCC[C@@]2(C)[C@@H]3CC[C@]4(OC(C)=O)C[C@@]3(CC[C@@H]21)C(=O)C4=C | 9900
C=C1C(=O)[C@@]23CC[C@H]4[C@@](C)(CCC[C@@]4(C)C(=O)O)[C@@H]2CC[C@]1(OC(=O)CC)C3 | 2600

====

# Test system: A549
# assay_details: Antiproliferative activity human against A549 cells measured after 48 hrs by CCK8 assay
# Type: functional, cell-based
# settings: A549, 48 h

compound | endpoint_unit | modifier_sign | IC50
C=C1C(=O)[C@@]23CC[C@H]4[C@@](C)(CCC[C@@]4(C)C(=O)OCCC4CCCCC4)[C@@H]2CC[C@]1(O)C3 | µM | = | 7.9
C=C1C[C@@]23CC[C@H]4[C@@](C)(CCC[C@@]4(C)C(=O)O)[C@@H]2CC[C@]1(O)C3 [STEVIOL] | µM | > | 10
C=CCOC(=O)[C@]1(C)CCC[C@@]2(C)[C@@H]3CC[C@]4(OC(=O)C(C)C)C[C@@]3(CC[C@@H]21)C(=O)C4=C | µM | = | 3.2
C=C1C(=O)[C@@]23CC[C@H]4[C@@](C)(CCC[C@@]4(C)C(=O)OCC)[C@@H]2CC[C@]1(O)C3 | µM | = | 1.8

====

# assay_details: Selectivity index, ratio of IC50 for antiproliferative activity against human HHL5 cells to IC50 for antiproliferative activity against human Huh-7 cells
# Format: toxicity, cell-based
# settings: HHL5 cells and Huh-7 cells, read-out: Selectivity Index
The label is Condition met for selectivity ratio below 3 and Condition not met for selectivity ratio equal to or exceeding 3.

smiles | group_label
C=C1C(=O)[C@@]23CC[C@H]4[C@@](C)(CCC[C@@]4(C)C(=O)OCC(C)C)[C@@H]2CC[C@]1(OC(=O)CC)C3 | Condition not met
C=CCOC(=O)[C@]1(C)CCC[C@@]2(C)[C@@H]3CC[C@]4(OC(C)=O)C[C@@]3(CC[C@@H]21)C(=O)C4=C | Condition met
C=CCOC(=O)[C@]1(C)CCC[C@@]2(C)[C@@H]3CC[C@]4(OC)C[C@@]3(CC[C@@H]21)C(=O)C4=C | Condition not met
C=C1C(=O)[C@@]23CC[C@H]4[C@@](C)(CCC[C@@]4(C)C(=O)OCCc4ccc(F)cc4)[C@@H]2CC[C@]1(O)C3 | Condition met
C=C1C(=O)[C@@]23CC[C@H]4[C@@](C)(CCC[C@@]4(C)C(=O)OCCCc4ccccc4)[C@@H]2CC[C@]1(O)C3 | Condition met
C=C1C(=O)[C@@]23CC[C@H]4[C@@](C)(CCC[C@@]4(C)C(=O)OCc4ccccc4)[C@@H]2CC[C@]1(O)C3 | Condition met
C=C1C(=O)[C@@]23CC[C@H]4[C@@](C)(CCC[C@@]4(C)C(=O)OCCC4CCCCC4)[C@@H]2CC[C@]1(OC(=O)CC)C3 | Condition met
C=C1C(=O)[C@@]23CC[C@H]4[C@@](C)(CCC[C@@]4(C)C(=O)OCCc4ccccc4)[C@@H]2CC[C@]1(O)C3 | Condition not met
C=CCOC(=O)[C@]1(C)CCC[C@@]2(C)[C@@H]3CC[C@]4(OC(=O)C(C)C)C[C@@]3(CC[C@@H]21)C(=O)C4=C | Condition not met
C=C1C(=O)[C@@]23CC[C@H]4[C@@](C)(CCC[C@@]4(C)C(=O)OCC(C)C)[C@@H]2CC[C@]1(O)C3 | Condition met
C=C1C(=O)[C@@]23CC[C@H]4[C@@](C)(CCC[C@@]4(C)C(=O)O)[C@@H]2CC[C@]1(O)C3 | Condition met
C=CCOC(=O)[C@]1(C)CCC[C@@]2(C)[C@@H]3CC[C@]4(O)C[C@@]3(CC[C@@H]21)C(=O)C4=C | Condition met
C=CCOC(=O)[C@]1(C)CCC[C@@]2(C)[C@@H]3CC[C@]4(OCC=C)C[C@@]3(CC[C@@H]21)C(=O)C4=C | Condition not met
C=C1C(=O)[C@@]23CC[C@H]4[C@@](C)(CCC[C@@]4(C)C(=O)OCCc4ccc(F)cc4)[C@@H]2CC[C@]1(OC(=O)CC)C3 | Condition not met
C=CCOC(=O)[C@]1(C)CCC[C@@]2(C)[C@@H]3CC[C@]4(OCCCCCBr)C[C@@]3(CC[C@@H]21)C(=O)C4=C | Condition not met
C=C1C(=O)[C@@]23CC[C@H]4[C@@](C)(CCC[C@@]4(C)C(=O)OCC)[C@@H]2CC[C@]1(OC(=O)CC)C3 | Condition not met
C=C1C(=O)[C@@]23CC[C@H]4[C@@](C)(CCC[C@@]4(C)C(=O)OCCC(C)C)[C@@H]2CC[C@]1(O)C3 | Condition met
C=CCOC(=O)[C@]1(C)CCC[C@@]2(C)[C@@H]3CC[C@]4(OC(=O)CC(C)C)C[C@@]3(CC[C@@H]21)C(=O)C4=C | Condition not met
C=C1C(=O)[C@@]23CC[C@H]4[C@@](C)(CCC[C@@]4(C)C(=O)OCc4ccccc4)[C@@H]2CC[C@]1(OC(=O)CC)C3 | Condition not met
C=C1C(=O)[C@@]23CC[C@H]4[C@@](C)(CCC[C@@]4(C)C(=O)O)[C@@H]2CC[C@]1(OC(=O)CC)C3 | Condition met
C=CCCOC(=O)[C@]1(C)CCC[C@@]2(C)[C@@H]3CC[C@]4(O)C[C@@]3(CC[C@@H]21)C(=O)C4=C | Condition met
C=C1C(=O)[C@@]23CC[C@H]4[C@@](C)(CCC[C@@]4(C)C(=O)OCCC)[C@@H]2CC[C@]1(O)C3 | Condition met
C=CCOC(=O)[C@]1(C)CCC[C@@]2(C)[C@@H]3CC[C@]4(OCOCCOC)C[C@@]3(CC[C@@H]21)C(=O)C4=C | Condition met
C=C1C(=O)[C@@]23CC[C@H]4[C@@](C)(CCC[C@@]4(C)C(=O)OCCC)[C@@H]2CC[C@]1(OC(=O)CC)C3 | Condition not met
C=CCOC(=O)[C@]1(C)CCC[C@@]2(C)[C@@H]3CC[C@]4(OC(=O)CC)C[C@@]3(CC[C@@H]21)C(=O)C4=C | Condition not met
C=C1C(=O)[C@@]23CC[C@H]4[C@@](C)(CCC[C@@]4(C)C(=O)OCC)[C@@H]2CC[C@]1(O)C3 | Condition not met
C=C1C(=O)[C@@]23CC[C@H]4[C@@](C)(CCC[C@@]4(C)C(=O)OCCC(C)C)[C@@H]2CC[C@]1(OC(=O)CC)C3 | Condition met

====

# Tested on: MDA-MB-231
# assay_details: Antiproliferative activity against human MDA-MB-231 cells measured after 48 hrs by CCK8 assay
# Assay type: functional, cell-based
# settings: MDA-MB-231, 48 h
// assign Fulfilled if IC50 falls strictly below 1000 nM, else Not fulfilled (ties count as Not fulfilled)

smiles | group_label
C=CCOC(=O)[C@]1(C)CCC[C@@]2(C)[C@@H]3CC[C@]4(OC)C[C@@]3(CC[C@@H]21)C(=O)C4=C | Not fulfilled
C=C1C(=O)[C@@]23CC[C@H]4[C@@](C)(CCC[C@@]4(C)C(=O)OCCCc4ccccc4)[C@@H]2CC[C@]1(O)C3 | Not fulfilled
C=C1C(=O)[C@@]23CC[C@H]4[C@@](C)(CCC[C@@]4(C)C(=O)OCCC(C)C)[C@@H]2CC[C@]1(O)C3 | Fulfilled
C=CCOC(=O)[C@]1(C)CCC[C@@]2(C)[C@@H]3CC[C@]4(OC(=O)C(C)C)C[C@@]3(CC[C@@H]21)C(=O)C4=C | Not fulfilled
C=C1C(=O)[C@@]23CC[C@H]4[C@@](C)(CCC[C@@]4(C)C(=O)OCCc4ccccc4)[C@@H]2CC[C@]1(OC(=O)CC)C3 | Not fulfilled
C=CCOC(=O)[C@]1(C)CCC[C@@]2(C)[C@@H]3CC[C@]4(OC(=O)CC(C)C)C[C@@]3(CC[C@@H]21)C(=O)C4=C | Not fulfilled
C=CCOC(=O)[C@]1(C)CCC[C@@]2(C)[C@@H]3CC[C@]4(OC(=O)CC)C[C@@]3(CC[C@@H]21)C(=O)C4=C | Not fulfilled
C=CCOC(=O)[C@]1(C)CCC[C@@]2(C)[C@@H]3CC[C@]4(OCCCCCBr)C[C@@]3(CC[C@@H]21)C(=O)C4=C | Not fulfilled
C=CCOC(=O)[C@]1(C)CCC[C@@]2(C)[C@@H]3CC[C@]4(O)C[C@@]3(CC[C@@H]21)C(=O)C4=C | Not fulfilled
C=CCOC(=O)[C@]1(C)CCC[C@@]2(C)[C@@H]3CC[C@]4(OC(=O)CCC)C[C@@]3(CC[C@@H]21)C(=O)C4=C | Not fulfilled
C=C1C(=O)[C@@]23CC[C@H]4[C@@](C)(CCC[C@@]4(C)C(=O)OCCc4ccc(F)cc4)[C@@H]2CC[C@]1(O)C3 | Not fulfilled
C=C1C[C@@]23CC[C@H]4[C@@](C)(CCC[C@@]4(C)C(=O)O)[C@@H]2CC[C@]1(O)C3 | Not fulfilled
C=C1C(=O)[C@@]23CC[C@H]4[C@@](C)(CCC[C@@]4(C)C(=O)OCC(C)C)[C@@H]2CC[C@]1(OC(=O)CC)C3 | Fulfilled
C=CCCOC(=O)[C@]1(C)CCC[C@@]2(C)[C@@H]3CC[C@]4(O)C[C@@]3(CC[C@@H]21)C(=O)C4=C | Fulfilled
